# credit: paper PMC9105384

substrate: Cc1cc(=O)oc2c(F)c(OP(=O)(O)O)c(F)cc12; assay: purified protein, by the assay type; parameters: DiFMUP hydrolysis by purified PTPs, fluorescence Ex355/Em460, initial rates over 10 min; Michaelis-Menten and Lineweaver-Burk Km
Property Label: Km
Form field: result (number plus unit)

Any idea what Km was measured for DUSP9 (Homo sapiens) (protein) MEGLGRSCLWLRRELSPPRPRLLLLDCRSRELYESARIGGALSVALPALLLRRLRRGSLSVRALLPGPPLQPPPPAPVLLYDQGGGRRRRGEAEAEAEEWEAESVLGTLLQKLREEGYLAYYLQGGFSRFQAECPHLCETSLAGRAGSSMAPVPGPVPVVGLGSLCLGSDCSDAESEADRDSMSCGLDSEGATPPPVGLRASFPVQILPNLYLGSARDSANLESLAKLGIRYILNVTPNLPNFFEKNGDFHYKQIPISDHWSQNLSRFFPEAIEFIDEALSQNCGVLVHCLAGVSRSVTVTVAYLMQKLHLSLNDAYDLVKRKKSNISPNFNFMGQLLDFERSLRLEERHSQEQGSGGQASAASNPPSFFTTPTSDGAFELAPT ?
35.0 µM
